Target: NLRP3 (Homo sapiens)
Construct: endogenous in cells
Sequence (Q96P20 whole entry): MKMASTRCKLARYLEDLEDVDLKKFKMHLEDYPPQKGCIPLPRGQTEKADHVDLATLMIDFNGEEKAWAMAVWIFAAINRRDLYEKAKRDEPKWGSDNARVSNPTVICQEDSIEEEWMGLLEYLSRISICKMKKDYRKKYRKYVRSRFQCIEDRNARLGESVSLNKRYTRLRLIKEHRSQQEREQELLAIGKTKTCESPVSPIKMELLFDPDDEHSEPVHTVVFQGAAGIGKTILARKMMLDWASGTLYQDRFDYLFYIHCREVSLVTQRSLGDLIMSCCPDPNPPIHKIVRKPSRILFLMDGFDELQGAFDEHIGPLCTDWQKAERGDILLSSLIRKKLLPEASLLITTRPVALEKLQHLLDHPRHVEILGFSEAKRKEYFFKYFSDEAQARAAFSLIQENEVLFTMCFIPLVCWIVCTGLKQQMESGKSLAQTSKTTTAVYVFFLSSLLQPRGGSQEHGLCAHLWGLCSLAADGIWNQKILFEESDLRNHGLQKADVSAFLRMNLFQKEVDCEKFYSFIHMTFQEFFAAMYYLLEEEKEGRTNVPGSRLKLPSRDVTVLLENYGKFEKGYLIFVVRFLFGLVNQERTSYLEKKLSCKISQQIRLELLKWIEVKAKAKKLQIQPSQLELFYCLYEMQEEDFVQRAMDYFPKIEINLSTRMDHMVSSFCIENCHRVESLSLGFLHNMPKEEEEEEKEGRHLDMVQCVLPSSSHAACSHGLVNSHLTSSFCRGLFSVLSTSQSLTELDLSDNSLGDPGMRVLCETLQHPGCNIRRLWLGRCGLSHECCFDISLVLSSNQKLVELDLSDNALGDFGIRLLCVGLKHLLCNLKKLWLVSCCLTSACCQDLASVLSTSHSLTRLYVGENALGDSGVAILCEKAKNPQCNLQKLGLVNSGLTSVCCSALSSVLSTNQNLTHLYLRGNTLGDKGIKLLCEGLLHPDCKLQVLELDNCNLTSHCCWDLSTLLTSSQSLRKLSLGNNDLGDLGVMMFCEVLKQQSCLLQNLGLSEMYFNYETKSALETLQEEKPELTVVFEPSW
Experiment: Human whole blood (hWB) NLRP3 assay
Settings: LPS priming 1 μg/ml, ATP activation, read-out: hWB IC50 (raw activity data)
pIC50: −log10 of the molar value.
measuredQuantity: pIC50

molecule: CC1(C)C[C@@H](Nc2nnc(-c3ccc(OC(F)F)cc3O)c3ccncc23)CO1 (single isomer, unassigned)
pIC50: 7.21

[I] Oc1cc(C(F)(F)F)ccc1-c1nnc(N[C@@H]2COC3(CC3)C2)c2cnccc12 (single isomer, unassigned) [Compound 19B]
[II] Cc1ccc(-c2nnc(N[C@@H]3COC(C)(C)C3)c3cnccc23)c(O)c1
// query # query: argmin of pIC50 over I and II Field: selected label. Fill in the label of the entry you choose.
// result I

[1] CC1(C)C[C@@H](Nc2nnc(-c3ccc(C(F)(F)F)cc3O)c3ccncc23)CCO1 (single isomer, unassigned)
[2] C[C@H]1COCC[C@H]1Nc1nnc(-c2ccc(Cl)cc2O)c2ccncc12 (single isomer, unassigned)
// query # query: argmin of pIC50 over 1 and 2 Field: selected label. Fill in the label of the entry you choose.
// result 1
(1: 5.85, 2: 6.05)
